# Test system: APESV: bentgrass (Apera spica-venti)
# experiment: Post-emergent Test III, herbicidal activity in wheat and barley
# Assay type: in vivo
# details: Apera spica-venti, post-emergence, 504 h; 35 g ai/ha; read-out: Visual Growth Reduction (%) 21 Days After Application APESV
# pest or weed control at 35 g/ha per record follows

Below, each entry is followed by its recorded pest or weed control at 35 g/ha result.
compound="COC(=O)c1nc(-c2ccc(Cl)c(F)c2)c(F)c(N)c1Cl [Compound 216]" quantity_kind="pest or weed control at 35 g/ha" recorded_result="85 to 94%"
compound="COC(=O)c1nc(-c2ccc(I)cc2)c(F)c(N)c1Cl [Compound 118]" quantity_kind="pest or weed control at 35 g/ha" recorded_result="60 to 74%"

Short answer on APESV: bentgrass (Apera spica-venti) for COC(=O)c1nc(-c2ccc(OC(F)F)cc2)c(F)c(N)c1Cl [Compound 85] , pest or weed control at 35 g/ha: 0 to 29%

Short answer on APESV: bentgrass (Apera spica-venti) for C=Cc1c(C(=O)O)nc(-c2ccc(Cl)c(F)c2)c(F)c1N [Compound 214] , pest or weed control at 35 g/ha: 0 to 29%

Short answer on APESV: bentgrass (Apera spica-venti) for Nc1c(F)c(-c2ccc(C(F)(F)F)c(F)c2F)nc(C(=O)O)c1Cl [Compound 167] , pest or weed control at 35 g/ha: 75 to 84%

Short answer on APESV: bentgrass (Apera spica-venti) for Nc1c(F)c(-c2ccc(Br)cc2)nc(C(=O)O)c1Cl [Compound 20] , pest or weed control at 35 g/ha: 85 to 94%

Short answer on APESV: bentgrass (Apera spica-venti) for Nc1c(F)c(-c2ccc(Br)c(F)c2F)nc(C(=O)O)c1Cl [Compound 147] , pest or weed control at 35 g/ha: 85 to 94%

====

# Tested on: SETVI: green foxtail (Setaria viridis)
# experiment: Post-emergent Test III, herbicidal activity in wheat and barley
# Type: in vivo
# details: probit analysis, dose for growth reduction of 80 percent, 21 days after application
quantity-kind: GR80 SETVI
Include the unit right after the number.

given_smiles=Nc1cc(-c2ccc(Br)c(F)c2F)nc(C(=O)O)c1Cl system_tested="SETVI: green foxtail (Setaria viridis)" recorded_result="105 g ai/ha"

// GR80 SETVI lookup, molecule = Nc1c(F)c(-c2ccc(I)cc2)nc(C(=O)O)c1Cl , result: 52 g ai/ha

// GR80 SETVI lookup, molecule = COC(=O)c1nc(-c2ccc(Cl)c(F)c2)c(F)c(N)c1Cl , result: 64 g ai/ha

// GR80 SETVI lookup, molecule = COC(=O)c1nc(-c2ccc(Br)cc2)c(F)c(N)c1Cl , result: 32 g ai/ha

====

# Tested on: HORSS: barley, including spring and winter (Hordeum vulgare)
# experiment: Post-emergent Test III, herbicidal activity in wheat and barley
# Format: in vivo
# details: Table 9; dose for 20 percent growth reduction, probit analysis; 21 d
# Experimental: Post-emergent Test III. […] A weighed amount, determined by the highest rate to be tested, of each test compound was placed in a 25 mL glass vial and was dissolved in 4 mL of a 97:3 v/v mixture of acetone and DMSO to obtain concentrated stock solutions. […]
quantity-kind: GR20 HORSS

Below, each entry is followed by its recorded GR20 HORSS result.
given_smiles=C#Cc1ccc(-c2nc(N)c(OC)c(C(=O)O)n2)cc1 quantity_kind="GR20 HORSS" recorded_result="43 g ai/ha"
given_smiles=COC(=O)c1nc(-c2ccc(Br)cc2)c(Cl)c(N)c1Cl quantity_kind="GR20 HORSS" recorded_result="1 g ai/ha"

Continue with the compound presented below.
// GR20 HORSS lookup, compound = COC(=O)c1nc(-c2ccc(Br)cc2F)nc(N)c1OC , result: 8 g ai/ha

====

# pest or weed control at 140 g/ha per record follows
# Test system: Key Broadleaf Weed and Crop Species
# experiment: Post-emergent Test II herbicidal activity (Table 5)
# Assay type: in vivo
# details: post-emergence, 336 h; VIOTR: wild pansy (Viola tricolor); 140 g ai/ha; post-emergent; 14 days after application; read-out: Visual Growth Reduction (%) 14 Days After Application VIOTR
# Text: Post-emergent Test II: Seeds or nutlets of the desired test plant species were planted in Sun Gro Metro-Mix® 360 planting mixture, which typically has a pH of 6.0 to 6.8 and an organic matter content of about 30 percent, in plastic pots with a surface area of 64 square centimeters. When required to ensure good germination and healthy plants, a fungicide treatment and/or other chemical or physical treatment was applied. […]

Below, each entry is followed by its recorded pest or weed control at 140 g/ha result.
compound="COC(=O)c1nc(-c2ccc(C#N)c(F)c2)c(C)c(N)c1Cl [Compound 155]" recorded_result="0 to 29%"
compound="Cc1c(-c2ccc(OC(F)F)cc2)nc(C(=O)O)c(Cl)c1N [Compound 94]" recorded_result="0 to 29%"
compound="C=Cc1c(C(=O)OC)nc(-c2ccc(C#N)cc2)c(F)c1N [Compound 107]" recorded_result="0 to 29%"
compound="C#Cc1ccc(-c2nc(C(=O)OC)c(C=C)c(N)c2F)cc1 [Compound 60]" recorded_result="0 to 29%"
compound="COC(=O)c1nc(-c2cc(F)c(I)cc2F)cc(N)c1Cl [Compound 56]" recorded_result="95 to 100%"

Continue with the compound presented below.
// pest or weed control at 140 g/ha lookup, compound = N#Cc1ccc(-c2nc(C(=O)O)c(Cl)c(N)c2Cl)cc1 [Compound 14] , result: 0 to 29%

====

# pest or weed control at 70 g/ha per record follows
# Test system: SETVI: green foxtail (Setaria viridis)
# experiment: Post-emergent Test III, herbicidal activity in wheat and barley
# Type: in vivo
# details: Setaria viridis, post-emergence, 504 h; 70 g ai/ha; read-out: Visual Growth Reduction (%) 21 Days After Application SETVI

given_smiles=Nc1c(F)c(-c2ccc(I)cc2)nc(C(=O)O)c1Cl recorded_result="85 to 94%"
given_smiles=N#Cc1ccc(-c2nc(C(=O)O)c(Cl)c(N)c2F)cc1 recorded_result="45 to 59%"
given_smiles=Nc1c(F)c(-c2ccc(Cl)c(F)c2)nc(C(=O)O)c1Cl recorded_result="75 to 84%"

Continue with the compound presented below.
// pest or weed control at 70 g/ha lookup, compound = COC(=O)c1nc(-c2ccc(C#N)cc2)c(F)c(N)c1Cl , result: 0 to 29%

====

# pest or weed control at 70 g/ha per record follows
# Test system: Key Grass and Sedge Weeds as well as Grass Crops
# experiment: Post-emergent Test II herbicidal activity (Table 6)
# Type: in vivo
# details: post-emergence, 336 h, CYPES: yellow nutsedge (Cyperus esculentus), application rate 70 g ai/ha, read-out: Visual Growth Reduction (%) 14 Days After Application, CYPES

Below, each entry is followed by its recorded pest or weed control at 70 g/ha result.
given_smiles=COC(=O)c1nc(-c2ccc(I)c(F)c2)nc(N)c1OC quantity_kind="pest or weed control at 70 g/ha" recorded_result="0 to 29%"
given_smiles=C=Cc1c(N)nc(-c2ccc(C#N)cc2F)nc1C(=O)OC quantity_kind="pest or weed control at 70 g/ha" recorded_result="0 to 29%"
given_smiles=Nc1c(F)c(-c2ccc(OC(F)F)c(F)c2F)nc(C(=O)O)c1Cl quantity_kind="pest or weed control at 70 g/ha" recorded_result="0 to 29%"
given_smiles=COC(=O)c1nc(-c2ccc(I)cc2)c(Cl)c(N)c1Cl quantity_kind="pest or weed control at 70 g/ha" recorded_result="95 to 100%"
given_smiles=COC(=O)c1nc(-c2ccc(C#N)c(F)c2)c(C)c(N)c1Cl quantity_kind="pest or weed control at 70 g/ha" recorded_result="0 to 29%"
given_smiles=COC(=O)c1nc(-c2ccc(I)c(F)c2)c(Cl)c(N)c1Cl quantity_kind="pest or weed control at 70 g/ha" recorded_result="75 to 84%"

// pest or weed control at 70 g/ha lookup, compound = Cc1cc(F)c(-c2cc(N)c(Cl)c(C(=O)O)n2)cc1F , result: 0 to 29%

// pest or weed control at 70 g/ha lookup, compound = COC(=O)c1nc(-c2cc(F)c(C)cc2F)cc(N)c1Cl , result: 0 to 29%

// pest or weed control at 70 g/ha lookup, compound = Nc1c(Cl)c(C(=O)O)nc(-c2ccc(I)cc2)c1Cl , result: 95 to 100%

====

# pest or weed control at 35 g/ha per record follows
# System: APESV: bentgrass (Apera spica-venti)
# experiment: Post-emergent Test III, herbicidal activity in wheat and barley
# Type: in vivo
# details: Apera spica-venti, post-emergence, 504 h; Table 9; 35 g ai/ha; post-emergent; 21 d; read-out: Visual Growth Reduction (%) 21 Days After Application APESV

Below, each entry is followed by its recorded pest or weed control at 35 g/ha result.
given_smiles=COc1c(N)nc(-c2ccc(Br)cc2F)nc1C(=O)O recorded_result="0 to 29%"
given_smiles=COC(=O)c1nc(-c2ccc(I)cc2)c(Cl)c(N)c1Cl recorded_result="30 to 44%"
given_smiles=Nc1cc(-c2ccc(C(F)(F)F)c(F)c2F)nc(C(=O)O)c1Cl recorded_result="30 to 44%"
given_smiles=COC(=O)c1nc(-c2ccc(Br)cc2)c(Cl)c(N)c1Cl recorded_result="95 to 100%"

// pest or weed control at 35 g/ha lookup, molecule = Nc1c(Cl)c(C(=O)O)nc(-c2ccc(I)cc2)c1Cl , result: 60 to 74%

// pest or weed control at 35 g/ha lookup, molecule = Nc1c(Cl)c(C(=O)O)nc(-c2ccc(C(F)(F)F)c(F)c2)c1Cl , result: 95 to 100%

// pest or weed control at 35 g/ha lookup, molecule = Nc1cc(-c2ccc(Br)cc2)nc(C(=O)O)c1Cl , result: 75 to 84%
